Target: BRDT (Homo sapiens, UniProt Q58F21)
Test: competitive TR-FRET assay, BET-BD with acetylated peptide ligand
Format: binding
Conditions: BRDT; Table 11 additional modifications; read-out: BRDT EC50
REPORTED PROPERTY: EC50 (µM)
Record the value in µM, omitting the unit from your answer.

So what does the record say about EC50 for `CC(=O)Nc1cccc(-c2ccc3c(c2)[C@H](Nc2ccc(-c4nnc(C)o4)cc2)C[C@H](C)N3C(C)=O)c1` ?
0.14

Bench note: what EC50 did `CC(=O)N1c2ccc(-c3ccnn3C)cc2[C@H](NC(=O)OC(C)C)C[C@@H]1C` show?
40

----------
Target: BRDT(1) (Homo sapiens (Human), UniProt Q58F21)
Experiment: BROMOscan KD determination
Details: Table 10
Label key: Criterion met means Kd under 20 nM; Criterion not met means Kd of 20 nM or more.

Determine if `CC(=O)Nc1cccc(-c2ccc3c(c2)[C@H](Nc2ccccc2C(F)(F)F)C[C@H](C)N3C(C)=O)c1` shows Kd strictly lower than 20 nM.
Criterion not met

Is the reported Kd for `COC(=O)c1ccc(N[C@@H]2C[C@H](C)N(C(C)=O)c3ccc(-c4cccc(NCCC(F)(F)F)c4)cc32)cc1` strictly below 20 nM?
Criterion not met

API: query returns whether the compound falls strictly under 20 nM in Kd. Query: `CC(=O)Nc1cccc(-c2ccc3c(c2)[C@H](Nc2ccccc2OC(F)(F)F)C[C@H](C)N3C(C)=O)c1`
Criterion not met

Bench note: check whether `CCCOc1cccc(-c2ccc3c(c2)[C@H](Nc2ccc(C(=O)OC)cc2)C[C@H](C)N3C(C)=O)c1` shows Kd below 20 nM
Criterion not met

Dear reviewer, please state whether `COC(=O)c1ccc(N[C@@H]2C[C@H](C)N(C(C)=O)c3ccc(-c4cccc(NC(C)=O)c4)cc32)cc1` has Kd strictly beneath 20 nM.
Criterion met

Strictly below 20 nM: is that where Kd of `CC(=O)N1c2ccc(-c3cccc(-n4cccn4)c3)cc2[C@H](Nc2ccc(Cl)cc2)C[C@@H]1C` sits?
Criterion not met

API: query returns whether the compound falls strictly under 20 nM in Kd. Query: `COC(=O)c1ccc(N[C@@H]2C[C@H](C)N(C(C)=O)c3ccc(-c4ccnn4C)cc32)cc1`
Criterion met

# check: Kd < 20 nM for CC(=O)N1c2ccc(-c3ccc(C(=O)O)cc3)cc2[C@H](Nc2ccc(Cl)cc2)C[C@@H]1C [GSK-726, IBET-726, reference compound]
Criterion met

----------
Molecular target: BRD2-BD2 (Homo sapiens (Human))
Sequence (P25440 348-455): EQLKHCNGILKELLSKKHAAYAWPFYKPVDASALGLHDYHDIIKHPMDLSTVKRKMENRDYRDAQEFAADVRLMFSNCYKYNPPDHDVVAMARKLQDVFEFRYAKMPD
Test: isothermal titration calorimetry analysis of binding
Conditions: ITC, BRD2-BD2, average of 3 experiments; read-out: average Kd
pKd: −log10 of the molar value.
Decide by pKd: equal to or exceeding 7 means 1 (yes), less means 0 (no).

Determine whether measured pKd meets or exceeds 7 for `CC(=O)N1c2ccc(-c3ccsc3)cc2[C@H](NC(=O)OC(C)C)C[C@@H]1C`
1 (yes)

Decide: pKd of `CC(=O)N1c2ccc(-c3ccc[nH]3)cc2[C@H](NC(=O)OC(C)C)C[C@@H]1C` >= 7?
1 (yes)

Test whether the molecule `CC(=O)N1c2ccc(-c3ccoc3)cc2[C@H](NC(=O)OC(C)C)C[C@@H]1C` records pKd of 7 or higher.
0 (no)

Hi, just wondering whether `CC(=O)N1c2ccc(-c3cc[nH]c3)cc2[C@H](NC(=O)OC(C)C)C[C@@H]1C` shows pKd of 7 or higher.
1 (yes)

Test whether the molecule `CC(=O)N1c2ccc(-c3cccs3)cc2[C@H](NC(=O)OC(C)C)C[C@@H]1C` records pKd of 7 or higher.
1 (yes)
